target_of_assay: T1, human MAdCAM expressed on cells (human, UniProt Q13477 19-382)
T1 construct: whole, on cells; also called MADCAM1
T1 sequence (looked up): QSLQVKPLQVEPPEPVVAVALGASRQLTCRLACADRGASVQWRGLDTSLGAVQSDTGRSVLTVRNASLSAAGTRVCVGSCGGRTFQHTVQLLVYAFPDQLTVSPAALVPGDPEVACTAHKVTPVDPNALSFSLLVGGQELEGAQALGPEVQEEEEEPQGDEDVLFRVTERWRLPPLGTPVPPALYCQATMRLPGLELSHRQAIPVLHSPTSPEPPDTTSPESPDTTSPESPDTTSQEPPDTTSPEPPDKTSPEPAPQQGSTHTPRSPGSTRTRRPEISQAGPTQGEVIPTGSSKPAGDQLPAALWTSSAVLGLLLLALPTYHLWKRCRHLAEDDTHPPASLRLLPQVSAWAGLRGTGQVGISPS
experiment_description: cell binding

binder	binding result
MAdCAM Antibody Table 2 Clone 11 (antibody, human IgG1, V domains shown) VH: EVQLLESGGGLVQPGGSLRLSCAASGFTFSDYYMNWVRQAPGKGLEWVSVIGESGGSTYYADSVKGRFTISRDNSKNTLYLQMNSLRAEDTAVYYCAADPVSRWPKHGGGDYWGQGTLVTVSS VL: DIQMTQSPSSLSASVGDRVTITCRASQGISSSLAWYQQKPGKAPKLLIYAASTLQSGVPSRFSGSGSGTDFTLTISSLQPEDFATYYCQQSYSTPWTFGQGTKVEIK	binds
MAdCAM Antibody Table 2 Clone 60 (antibody, human IgG1, V domains shown) VH: EVQLLESGGGLVQPGGSLRLSCAASGFTFSDHGMHWVRQAPGKGLEWVSVIYGGESTYYADSVKGRFTISRDNSKNTLYLQMNSLRAEDTAVYYCARDPAVAGGGIFDYWGQGTLVTVSS VL: DIQMTQSPSSLSASVGDRVTITCRASQGISNYLAWYQQKPGKAPKLLIYDASNLETGVPSRFSGSGSGTDFTLTISSLQPEDFATYYCQQSYSTCYTFGQGTKLEIK	binds

Reference source: patent US20210206856A1
